System: G-clamp-N3 (biotin conjugate)
Test: pull-down binding Z-score (relative to library population); higher = stronger binding
Settings: RNA library: Library-1 (pre-miRNA loops + repeats)
quantity kind: pull-down binding Z-score

Completed entries (count: 5):
seq string: UCCUCCACAAAUGCGUGUGGAGGA [hsa-mir-4633]
experimental system: G-clamp-N3 (biotin conjugate)
pull-down binding Z-score: 0.135
//
seq string: CCAAAUCCUUUUCUGAUUUGG [hsa-mir-4520-2]
experimental system: G-clamp-N3 (biotin conjugate)
pull-down binding Z-score: -0.824
//
seq string: GUGGAGCCAAAAUUAGAAGGGCCAAAAUUCUACCUGGCCCACUACCACAG [hsa-mir-3978]
experimental system: G-clamp-N3 (biotin conjugate)
pull-down binding Z-score: -0.932
//
seq string: UCCACAAGGAGGGGAUGACCCUUGUGGG [hsa-mir-4437]
experimental system: G-clamp-N3 (biotin conjugate)
pull-down binding Z-score: -0.125
//
seq string: UGCAGUUAGUGAAGCAGCUUAGAAUCUACUGCC [hsa-mir-18b]
experimental system: G-clamp-N3 (biotin conjugate)
pull-down binding Z-score: 0.0114

Note to self: pull-down binding Z-score recorded for AGCACUUUGUGUUUUGUGAAAGAAAGUGCU [hsa-mir-516b-2] was 2.82

Note to self: pull-down binding Z-score recorded for CAAGUUAUCACUGAGCGACUUC [hsa-mir-4664] was -1.2
